All values here come from ChEMBL document CHEMBL1201862.

System: LXFL 529
Assay: NCI tumour cell line growth inhibition, 48 h
Activity calls are given as the source filed them. No stated cut-off is given here; in the data, active = GI50 up to about 1.1 µM and inactive = higher.
Classes used: yes (1) for active, no (0) for inactive

molecule	assay.system	class
Cc1ccc(SC2C(C)(C)N(C(C)C)P2(=O)N(C(C)C)C(C)C)cc1 (centres undefined)	LXFL 529	no (0)
COC(=O)c1csnn1	LXFL 529	no (0)
COc1ccc2nc(C(=O)c3ccccc3)c(C)cc2c1	LXFL 529	no (0)
O=S(O)CCCCSSCc1ccccc1CSSCCCCS(=O)O	LXFL 529	no (0)
COc1cc2ccnc3c(=C(SC)SC)c(=O)c(c1OC)c23	LXFL 529	no (0)
CSC1CC2C(CC1(C)SC)C2(C)C (centres undefined)	LXFL 529	no (0)
CN(C)CCC(CCN(C)C)=NO	LXFL 529	no (0)
O=C(Cc1ccccc1F)NC1=C(Cl)C(=O)c2ccccc2C1=O	LXFL 529	yes (1)
CCCN(CCC)C(=O)Cc1c2n(c3ccccc13)CCCc1ccccc1-2	LXFL 529	no (0)
CCN(CC)CC(C)(C)C(=O)/C=C/c1cccc(/C=C/C(=O)C(C)(C)CN(CC)CC)c1	LXFL 529	yes (1)
COc1cc(Nc2nc3cc(C(F)(F)F)ccc3nc2-c2ccccc2)cc(OC)c1OC	LXFL 529	no (0)
COc1cc2c(cc1OC)C1[C@@H](c3ccccc3)OCN1CC2 (some centres undefined)	LXFL 529	no (0)
O=C(c1ccccc1)c1nnc(C(=O)c2ccccc2)nn1	LXFL 529	no (0)
COc1cc([C@@H]2c3cc4c(cc3[C@@H](NCc3ccccc3F)C3COC(=O)[C@@H]32)OCO4)cc(OC)c1O (some centres undefined)	LXFL 529	no (0)
COCCNC(=O)C1C(=O)C(=O)N(CCOC)C1=O (centres undefined)	LXFL 529	no (0)
O=[PH](O)c1ccsc1	LXFL 529	no (0)
O=S(=O)(SCc1ccccc1)C(c1ccccc1)c1ccccc1	LXFL 529	no (0)
OCCCCCNc1ccnc2cc(Cl)ccc12	LXFL 529	no (0)
C[C@]12CCC3[C@@H](CC[C@@H]4c5nonc5CC[C@]34C)C1CC[C@@H]2O (some centres undefined)	LXFL 529	no (0)
O=C(O)c1ccccc1NS(=O)(=O)c1ccc(Cl)cc1	LXFL 529	no (0)
CC(=O)OCC12CC(CC1OC(C)=O)c1ccccc12 (centres undefined)	LXFL 529	no (0)
O=c1c(O)c(-c2ccc(O)c(O)c2)oc2cc(O)cc(O)c12 [QUERCETIN]	LXFL 529	no (0)
COc1ccc(-c2cc(-c3ccccc3)c(C#N)c(=O)n2C2OC(CO)C(O)C(O)C2O)cc1 (centres undefined)	LXFL 529	no (0)
CCOC(=O)CNC(=O)c1nc[nH]c1/N=N/N(C)C	LXFL 529	no (0)
